# Subject of test: Nuclear receptor subfamily 1 group I member 3 (Mus musculus)
# Sequence (O35627 whole entry): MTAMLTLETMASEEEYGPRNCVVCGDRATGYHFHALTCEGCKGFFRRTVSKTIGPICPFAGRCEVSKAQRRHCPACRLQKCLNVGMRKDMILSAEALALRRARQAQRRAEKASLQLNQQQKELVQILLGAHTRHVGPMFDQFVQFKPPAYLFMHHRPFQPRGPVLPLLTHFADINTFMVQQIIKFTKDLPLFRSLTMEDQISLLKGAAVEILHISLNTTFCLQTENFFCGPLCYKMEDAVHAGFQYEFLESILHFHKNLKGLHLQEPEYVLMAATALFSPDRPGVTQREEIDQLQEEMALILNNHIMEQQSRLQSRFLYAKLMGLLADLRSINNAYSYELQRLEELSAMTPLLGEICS
# Test name: Inhibitory concentration against mammalian m-constitutive androstane receptor (mCAR) activity
Readout name: IC50 (µM)
The figure you give is taken to be in µM; do not add the unit.

input: Find the measured IC50 of C[C@]12CC[C@@H](O)C[C@@H]1CC[C@@H]1[C@@H]2CC[C@]2(C)C=CC[C@@H]12 and report it.
output: 0.25

input: Find the measured IC50 of C[C@]12CC[C@H]3[C@@H](CCC4=CC(=O)CC[C@@]43C)[C@@H]1CC[C@@H]2O and report it.
output: 30

* * *

Assign activity at 10 µM to each entry below.
# Subject of test: mouse constitutive androstane receptor (mCAR, NR1I3) (Mus musculus, UniProt O35627)
# Sequence (O35627 whole entry): as above
# Test name: Inhibition of mouse constitutive androstane receptor (mCAR) activity at 10 uM was determined as percent remaining activity
# Measurement conditions: read-out: Remaining activity

input: Find the measured activity at 10 µM of CC(=O)[C@H]1CC[C@H]2[C@@H]3CC[C@@H]4CC(=O)CC[C@]4(C)[C@H]3CC[C@]12C and report it.
output: 20%

input: Find the measured activity at 10 µM of C[C@@]12CCC[C@H]1[C@@H]1CCc3cc(O)ccc3[C@H]1CC2 and report it.
output: 56%

input: Find the measured activity at 10 µM of C[C@@]12CCC[C@H]1[C@@H]1CC[C@@H]3C[C@H](O)CC[C@]3(C)[C@H]1CC2 and report it.
output: 4%

input: Find the measured activity at 10 µM of C[C@]12CCC(=O)C=C1CCC1[C@@H]2[C@@H](O)C[C@@]2(C)[C@H]1CC[C@]2(O)C(=O)CO (single isomer, unassigned) [HYDROCORTISONE] and report it.
output: 68%

* * *

Assign activity at 10 µM to each entry below.
# Subject of test: mouse constitutive androstane receptor (mCAR, NR1I3) (Mus musculus)
# Test name: Inhibition of mouse constitutive androstane receptor (mCAR) activity at 10 uM was determined as percent remaining activity
# Measurement conditions: read-out: Remaining activity
The figure you give is taken to be in %; do not add the unit.

input: Find the measured activity at 10 µM of C[C@]12CC[C@H]3[C@@H](CCC4=CC(=O)CC[C@@]43C)[C@@H]1CC[C@H]2O [EPITESTOSTERONE] and report it.
output: 73

input: Find the measured activity at 10 µM of CC(=O)[C@H]1CC[C@H]2[C@@H]3CC=C4C[C@@H](O)CC[C@]4(C)[C@H]3CC[C@]12C and report it.
output: 95

input: Find the measured activity at 10 µM of CC12CC[C@H]3[C@@H](CC[C@@H]4CCCCC43C)[C@@H]1CCC2=O (some centres undefined) and report it.
output: 45

input: Find the measured activity at 10 µM of C[C@]12CC[C@H]3[C@@H](CCC4=CC(=O)CC[C@@]43C)[C@@H]1CC[C@@H]2O and report it.
output: 78

* * *

# Subject of test: mouse constitutive androstane receptor (mCAR, NR1I3) (Mus musculus, UniProt O35627)
# Test name: Inhibition of mouse constitutive androstane receptor (mCAR) activity at 10 uM was determined as percent remaining activity
# Measurement conditions: read-out: Remaining activity
Binary call on activity at 10 µM: 1 from 70% upward, -1 beneath that.

input: Is it the case that CC(=O)[C@H]1CC[C@H]2[C@@H]3CC[C@H]4C[C@H](O)CC[C@]4(C)[C@H]3CC[C@]12C has activity at 10 µM reaching or exceeding 70%?
output: -1

input: Is it the case that CC12CCC3C(CCC4=C[C@H](O)CCC43C)C1CCC2=O (some centres undefined) has activity at 10 µM reaching or exceeding 70%?
output: -1

input: Is it the case that C[C@@]12CCC[C@H]1[C@@H]1CC[C@H]3C[C@H](O)CC[C@]3(C)[C@H]1CC2 has activity at 10 µM reaching or exceeding 70%?
output: -1

input: Is it the case that CC12CCC3C(C[C@H](O)C4=CC(=O)CCC43C)C1CCC2=O (some centres undefined) has activity at 10 µM reaching or exceeding 70%?
output: 1

input: Is it the case that CC12CCC3C(C[C@@H](O)C4=CC(=O)CCC43C)C1CCC2=O (some centres undefined) has activity at 10 µM reaching or exceeding 70%?
output: 1

input: Is it the case that CC12CCC3C(CC[C@H]4CC(=O)C=CC34C)C1CCC2=O (some centres undefined) has activity at 10 µM reaching or exceeding 70%?
output: 1

input: Is it the case that CC(=O)[C@H]1CC[C@H]2[C@@H]3CC[C@H]4CC(=O)CC[C@]4(C)[C@H]3CC[C@]12C has activity at 10 µM reaching or exceeding 70%?
output: 1

input: Is it the case that CCC1CC[C@H]2[C@@H]3CC[C@H]4CC(=O)CCC4(C)[C@H]3CCC12C (some centres undefined) has activity at 10 µM reaching or exceeding 70%?
output: -1
